I'd be grateful if you could share measured Fold activation of DFHBI-1T fluorescence for these entries.
assay: Fluorescence activation of DFHBI-1T by aptamers in vitro; type: biochemical

Task: Param item = Squash: fluorogenic RNA aptamer evolved from the add A-riboswitch aptamer, binds DFHBI-1T and DFHO; SEQ ID NO: 12 (SEQ ID NO: 1) (nucleic acid, RNA, backbone not given here) AGGUGAGCCCAAUAAUACGGUUUGGGUUAGGAUAGGAAGUAGAGCCGUAAACUCUCUAAGCG ; retrieve measured Fold activation of DFHBI-1T fluorescence.
Result: 1064 fold

Task: Param item = 9-1: initial SELEX hit from sprouts/clips library, SEQ ID NO: 9 (nucleic acid, listed as RNA, chemistry not given here) GCCUAGGCUUCAAGGUGGCCCAAUGAUAUGGUUUGGGUUAGGAUAGGAAUAAGAGCCUUAAACUCUUCAAAGCGGAAGUCUAGGC ; retrieve measured Fold activation of DFHBI-1T fluorescence.
Result: ~521 fold
